# MEASUREMENT TARGET: T1, human BMP6 (human, UniProt P22004 382-513, limits assumed)
# T1 sequence: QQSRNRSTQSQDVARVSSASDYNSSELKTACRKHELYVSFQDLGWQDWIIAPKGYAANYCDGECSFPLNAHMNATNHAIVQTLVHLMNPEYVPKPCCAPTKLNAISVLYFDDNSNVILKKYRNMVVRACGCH
# TEST DETAILS: cell-based or functional assay

BINDER	RGA IC50 (µg/mL)
Antibody 5 (antibody, human IgG1, lambda, V domains shown, germlined clone of NOV0787 (HCDR2-matured NOV0442_VL[Y49,G50,N51Q]); human IgG1; lead antibody; also called NOV0951; NOV951) VH: QVQLVESGGGLVKPGGSLRLSCAASGFTFSSYVVHWVRQAPGKGLEWVGRIKRESSSYTTMYAAPVKGRFTISRDDSKNTLYLQMNSLKTEDTAVYYCARVERSKSGFDNWGQGTLVTVSS VL: QSVLTQPPSVSGAPGQRVTISCTGSSSNIGAGYSVHWYQQLPGTAPKLLIYGQSERPSGVPDRFSGSKSGTSASLAITGLQAEDEADYYCQSWDSSQTLVVFGGGTKLTVLG	0.04
Antibody 7 (antibody, human IgG1, lambda, V domains shown, germlined clone of NOV0806 (HCDR2-matured NOV0442_VL[Y49,G50,N51Q]); human IgG1; final lead; also called NOV0958; NOV958) VH: QVQLVESGGGLVKPGGSLRLSCAASGFTFSSYVVHWVRQAPGKGLEWVGRIRLETHGYAAEYAASVKGRFTISRDDSKNTLYLQMNSLKTEDTAVYYCARVERSKSGFDNWGQGTLVTVSS VL: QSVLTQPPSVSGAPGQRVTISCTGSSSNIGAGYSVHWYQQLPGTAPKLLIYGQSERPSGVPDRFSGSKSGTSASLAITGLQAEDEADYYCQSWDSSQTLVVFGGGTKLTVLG	0.04
Antibody 6 (antibody, human IgG1, lambda, V domains shown, germlined clone of NOV0798 (HCDR2-matured NOV0442_VL[Y49,G50,N51Q]); human IgG1; lead antibody; also called NOV0954; NOV954) VH: QVQLVESGGGLVKPGGSLRLSCAASGFTFSSYVVHWVRQAPGKGLEWVGRTRHSDMGYATSYAAPVKGRFTISRDDSKNTLYLQMNSLKTEDTAVYYCARVERSKSGFDNWGQGTLVTVSS VL: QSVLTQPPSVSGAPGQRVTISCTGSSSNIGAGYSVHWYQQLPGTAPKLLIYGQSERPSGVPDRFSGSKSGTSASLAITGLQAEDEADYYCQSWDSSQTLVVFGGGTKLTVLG	0.05
Antibody 3 (antibody, human IgG1, lambda, V domains shown, germlined clone of NOV0800 (HCDR2-matured NOV0442_VL[Y49,G50,N51S]); human IgG1; back-up antibody; also called NOV0961; NOV961) VH: QVQLVESGGGLVKPGGSLRLSCAASGFTFSSYVVHWVRQAPGKGLEWVGRIKDHKQGYTTAYAASVKGRFTISRDDSKNTLYLQMNSLKTEDTAVYYCARVERSKSGFDNWGQGTLVTVSS VL: QSVLTQPPSVSGAPGQRVTISCTGSSSNIGAGYSVHWYQQLPGTAPKLLIYGSSERPSGVPDRFSGSKSGTSASLAITGLQAEDEADYYCQSWDSSQTLVVFGGGTKLTVLG	0.08
